Source of measurements: PubChem BioAssay (NCI)

tested on: SNB-19 CNS; test: NCI-60 one-dose screen, 48 h (100 = growth as untreated, 0 = no growth, -100 = all killed); settings: 10 µM unless noted
The panel holds about 83,000 compounds, 20% with a hit somewhere; the sample as a whole holds those more often. Active and inactive are the calls of the source. How the source made its calls: active means growth percent below 10; inactive means the rest.
MEASUREMENT_NAME: growth

>>> result("Cc1c(Cl)cccc1NC(=O)c1sc2nc3c(cc2c1N)CCCCC3")
"34.2% (inactive)"
>>> result("O=C(CCCCCCCCC(=O)Nc1cccc(C2=NCCN2)c1)Nc1cccc(C2=NCCN2)c1")
"102% (inactive)"
>>> result("C1=CC2=CC=C3C=CC=C4C(c5nc6c7ccccc7c7ccccc7c6[nH]5)=CC(=C1)C2C34 (configuration not stated)")
"103% (inactive)"

Task item: Which growth value is on record for `C=CCn1c(SCC(=O)Nc2ccc(C(=O)/C=C/c3cc(OC)c(OC)c(OC)c3)cc2)nnc1-c1ccc(Cl)cc1` ?
Reply: 35.2% (inactive)

Task item: Which growth value is on record for `CN(C)[C@@H]1C(=O)C(C(N)=O)=C(O)[C@@]2(O)C(=O)C3=C(O)c4c(O)cc(CN5CCc6ccccc6C5)c(Cl)c4C[C@H]3C[C@@H]12` ?
Reply: -82.2% (active)

Task item: Which growth value is on record for `CC(C)C1=C[C@@]23CC[C@H]4[C@](C)(COCCC#N)CCC[C@]4(C)[C@H]2C[C@@H]1[C@@H]1[C@H]3[C@@H](OCCC#N)CC[C@@H]1OCCC#N` ?
Reply: 50.3% (inactive)

Task item: Which growth value is on record for `COc1ccc(-c2cc(-c3nnc(SCC(=O)Nc4ccc(/C(C)=N\O)cc4)n3-c3ccccc3)c3cc(OC)ccc3n2)cc1` ?
Reply: 77.9% (inactive)

Task item: Which growth value is on record for `O=C1Nc2ccc(Cl)cc2/C1=N/c1nc(-c2ccc(Cl)cc2)cs1` ?
Reply: 10.8% (inactive)

Task item: Which growth value is on record for `COc1ccc2nc(-c3ccc(OC)c(OC)c3)cc(-c3nnc(SCC(=O)Nc4ccc(/C(C)=N\O)cc4)n3-c3ccccc3)c2c1` ?
Reply: 84.3% (inactive)

Task item: Which growth value is on record for `CC(=O)c1cnc(-c2ccccc2)nc1CBr` ?
Reply: 81% (inactive)

Task item: Which growth value is on record for `COC(=O)/C=C1\SC(=Nc2ccc(C(F)(F)F)cc2)N(CCc2c[nH]c3ccccc23)C1=O` ?
Reply: -51.7% (active)

Task item: Which growth value is on record for COc1cc(C2=NNC(c3ccc(N(C)C)cc3)C2)cc(OC)c1OC (configuration not stated) ?
Reply: 8.5% (active)

Task item: Which growth value is on record for `C=C1C(=O)O[C@H]2[C@H]1CC/C(COC(=O)CCCCCCC(=O)OC/C1=C/CC[C@@]3(C)O[C@H]3[C@H]3OC(=O)C(=C)[C@@H]3CC1)=C\CC[C@@]1(C)O[C@@H]21` ?
Reply: 65.9% (inactive)

* * *

tested on: U251 CNS; test: NCI-60 one-dose screen, 48 h; conditions: 10 µM unless noted
This is part of a sample that, as a whole, favours compounds with a hit. Of some 83,000 tested, about 20% had one in any assay. The source made the active and inactive calls. The calls were made as follows: active = growth percent below 10; inactive = the rest.
Select the correct class. Options are active, inactive and nothing else.

Examples from the recorded data:
>>> assigned_category("O=C(Nc1ccc(N=Cc2ccccc2O)cc1)NC1C=c2ccccc2=CC1 (stereo unspecified)")
"inactive"
>>> assigned_category("Nc1ccc(C2=NN(C(=O)c3cc(-c4ccc(Cl)cc4)nc4ccccc34)C(c3ccc(Cl)cc3)C2)cc1 (stereo unspecified)")
"inactive"
>>> assigned_category("CCc1c(C(=O)N[C@@H](C(=O)OCc2ccccc2)C(C)O)[nH]c2ccc(Cl)cc12 (stereo partly specified)")
"inactive"

Task item: Per the assay record, what outcome was assigned to `Cc1c(O)c(=O)ccn1-c1nc2ccccc2s1` ?
Reply: inactive

Task item: Per the assay record, what outcome was assigned to COc1ccc2nc(-c3ccc(Cl)cc3)cc(C(=O)N3N=C(c4ccc(N)cc4)CC3c3ccccc3)c2c1 (stereo unspecified) ?
Reply: inactive

Task item: Per the assay record, what outcome was assigned to `CNCc1cccc2c1OCCOCCOCCN(CCN1CCOCC1)S(=O)(=O)c1ccc(cc1)-c1cnc(N)c(n1)C(=O)N2` ?
Reply: inactive

Task item: Per the assay record, what outcome was assigned to Cc1nc2sc(C(=O)Nc3cccc(Cl)c3C)c(N)c2cc1C(C)O (stereo unspecified) ?
Reply: inactive

Task item: Per the assay record, what outcome was assigned to `C=C1C(=O)O[C@H]2[C@H]1CC/C(COC(=O)CCCCCCCCC(=O)OC/C1=C/CC[C@@]3(C)O[C@H]3[C@H]3OC(=O)C(=C)[C@@H]3CC1)=C\CC[C@@]1(C)O[C@@H]21` ?
Reply: inactive

Task item: Per the assay record, what outcome was assigned to `Cc1nnc(/N=C2\NC(=O)/C(=C/c3ccc(N(C)C)cc3)S2)s1` ?
Reply: inactive

Task item: Per the assay record, what outcome was assigned to COc1cc(C2=NN(c3ccccc3)C(c3cccc(Nc4ccnc5cc(C(F)(F)F)ccc45)c3)C2)cc(OC)c1OC (stereo unspecified) ?
Reply: inactive

Task item: Per the assay record, what outcome was assigned to `C=CCn1c(SCC(=O)Nc2ccc(C(=O)/C=C/c3cc(OC)c(OC)c(OC)c3)cc2)nnc1-c1ccccc1` ?
Reply: inactive

Task item: Per the assay record, what outcome was assigned to `CCc1n(Cc2ccc3ccccc3c2)c2ccccc2[n+]1Cc1ccc2ccccc2c1` ?
Reply: inactive

Task item: Per the assay record, what outcome was assigned to `C=C1C(=O)O[C@H]2[C@H]1CC/C(COC(=O)c1cccnc1N)=C\CC[C@@]1(C)O[C@@H]21` ?
Reply: inactive

Task item: Per the assay record, what outcome was assigned to `C=C1C(=O)O[C@H]2[C@H]1CC/C(C=Nc1c(N)cc(C(F)(F)F)cc1Br)=C\CC[C@@]1(C)O[C@@H]21` ?
Reply: inactive

Task item: Per the assay record, what outcome was assigned to `c1ccc(-c2cn3ccnc3c(-c3ccc4c(c3)ncn4C3CCCCC3)n2)cc1` ?
Reply: inactive
